Values from paper PMC3627040

EXPERIMENTAL TARGET: human ClC-2 (hClC-2) Cl^− channel (Homo sapiens, UniProt P51788)
Construct: recombinant hClC-2 stably expressed in HEK293EBNA cells
Sequence (P51788 2-898): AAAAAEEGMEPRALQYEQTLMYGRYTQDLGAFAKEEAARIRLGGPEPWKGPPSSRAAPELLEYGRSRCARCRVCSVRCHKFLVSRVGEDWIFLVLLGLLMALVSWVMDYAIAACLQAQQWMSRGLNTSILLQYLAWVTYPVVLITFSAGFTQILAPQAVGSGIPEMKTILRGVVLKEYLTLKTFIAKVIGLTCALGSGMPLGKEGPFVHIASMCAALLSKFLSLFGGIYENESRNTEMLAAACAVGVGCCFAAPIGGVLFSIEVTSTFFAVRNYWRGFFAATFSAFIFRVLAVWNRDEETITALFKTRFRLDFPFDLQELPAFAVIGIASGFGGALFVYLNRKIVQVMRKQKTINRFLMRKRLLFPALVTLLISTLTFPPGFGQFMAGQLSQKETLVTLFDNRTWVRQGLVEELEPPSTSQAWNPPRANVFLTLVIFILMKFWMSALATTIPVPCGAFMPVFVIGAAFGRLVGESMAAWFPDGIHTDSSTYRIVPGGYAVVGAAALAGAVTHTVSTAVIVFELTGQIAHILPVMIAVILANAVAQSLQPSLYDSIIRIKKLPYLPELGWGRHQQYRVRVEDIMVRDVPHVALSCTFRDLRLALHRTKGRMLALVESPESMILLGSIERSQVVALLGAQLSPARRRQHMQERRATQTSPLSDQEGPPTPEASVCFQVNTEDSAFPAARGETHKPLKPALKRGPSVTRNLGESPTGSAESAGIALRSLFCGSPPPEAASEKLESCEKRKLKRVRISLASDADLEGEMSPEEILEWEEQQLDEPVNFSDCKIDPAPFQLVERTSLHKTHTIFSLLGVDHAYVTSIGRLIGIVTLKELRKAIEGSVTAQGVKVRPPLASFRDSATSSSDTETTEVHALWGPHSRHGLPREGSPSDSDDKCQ
ASSAY: whole cell patch clamp, activation of Cl- currents at -140 mV
OBSERVABLE: pEC50
API: returns pEC50 as number; meaning -log10 of concentration in mol/L.

Challenge: Give me measured pEC50, please, for this molecule: `CCCCC(F)(F)[C@@]1(O)CC[C@H]2[C@@H](CC(=O)[C@@H]2CCCCCCC(=O)O)O1`
Response given: 7.55
